Cited source: patent US6872690B2

Tested on: Ipomoea hederacea
assay-notes: Pre-emergence test
Assay type: in vivo
condition-notes: 0.400 kg/ha, 3 weeks after treatment
Give Assessment (pre-emergence application) IPOHE for every item shown.

Tell me measured Assessment (pre-emergence application) IPOHE for Cc1cc(C#C[Si](C)(C)C)nc(Oc2cc(C(F)(F)F)nn2C)c1 [Example 14] please.
1 (1-Trace effect)

Tell me measured Assessment (pre-emergence application) IPOHE for Cn1nc(C(F)(F)F)cc1Oc1cccc(C#Cc2ccccc2)n1 [Example 31] please.
2 (2-Slight effect)

Tell me measured Assessment (pre-emergence application) IPOHE for Cc1cc(C#Cc2ccccc2)nc(Oc2cc(C(F)(F)F)nn2C)c1 [Example 1] please.
9 (9-Complete kill)

Tell me measured Assessment (pre-emergence application) IPOHE for Cc1cc(C#Cc2ccc(F)cc2)nc(Oc2cc(C(F)(F)F)nn2C)c1 [Example 2] please.
6 (6-Herbicidal effect)

Tell me measured Assessment (pre-emergence application) IPOHE for COc1cc(C#Cc2ccccc2)nc(Oc2cc(C(F)(F)F)nn2C)c1 [Example 27] please.
6 (6-Herbicidal effect)

Tell me measured Assessment (pre-emergence application) IPOHE for Cc1cc(Oc2cc(C(F)(F)F)nn2C)nc(C#Cc2ccccc2)n1 [Example 161] please.
3 (3-Moderate effect)

====

Give Assessment (pre-emergence application) MATIN for every item shown.
Test system: Matricaria inodora
assay-notes: Pre-emergence test
Type: in vivo
condition-notes: 0.400 kg/ha, 3 weeks after treatment

Give the observed Assessment (pre-emergence application) MATIN of Cn1nc(C(F)(F)F)cc1Oc1cccc(C#Cc2ccccc2)n1 for Matricaria inodora.
7 (7-Good herbicidal effect)

Give the observed Assessment (pre-emergence application) MATIN of COc1cc(C#Cc2ccccc2)nc(Oc2cc(C(F)(F)F)nn2C)c1 for Matricaria inodora.
8 (8-Approaching complete kill)

Give the observed Assessment (pre-emergence application) MATIN of Cc1cc(C#Cc2ccc(F)cc2)nc(Oc2cc(C(F)(F)F)nn2C)c1 for Matricaria inodora.
9 (9-Complete kill)

Give the observed Assessment (pre-emergence application) MATIN of Cc1cc(C#C[Si](C)(C)C)nc(Oc2cc(C(F)(F)F)nn2C)c1 for Matricaria inodora.
8 (8-Approaching complete kill)

Give the observed Assessment (pre-emergence application) MATIN of Cc1cc(C#Cc2ccccc2)nc(Oc2cc(C(F)(F)F)nn2C)c1 for Matricaria inodora.
8 (8-Approaching complete kill)

Give the observed Assessment (pre-emergence application) MATIN of Cc1cc(Oc2cc(C(F)(F)F)nn2C)nc(C#Cc2ccccc2)n1 for Matricaria inodora.
8 (8-Approaching complete kill)

====

Test system: Digitaria sanguinalis
assay-notes: Post-emergence herbicidal activity test
Assay type: in vivo
condition-notes: 0.400 kg/ha, 2-4 weeks after treatment
Give Post-emergence application DIGSA for every item shown.

Tell me measured Post-emergence application DIGSA for Cc1cc(Oc2cc(C(F)(F)F)nn2C)nc(C#Cc2ccccc2)n1 please.
2 (2-Slight effect)

Tell me measured Post-emergence application DIGSA for COc1cc(C#Cc2ccccc2)nc(Oc2cc(C(F)(F)F)nn2C)c1 please.
6 (6-Herbicidal effect)

Tell me measured Post-emergence application DIGSA for Cn1nc(C(F)(F)F)cc1Oc1cccc(C#Cc2ccccc2)n1 please.
4 (4-Injury)

Tell me measured Post-emergence application DIGSA for Cc1cc(C#Cc2ccccc2)nc(Oc2cc(C(F)(F)F)nn2C)c1 please.
7 (7-Good herbicidal effect)
